Tested on: Wolbachia pipientis
Assay info: Anti-Wolbachia Cell-Based Screen
Type: functional
Design: scale not given: in the data most compounds retested in dose-response had high values
Particulars: 5 µM
The whole screen tested about 48,000 compounds, of which about 13,000 (27%) showed an effect of 50% or more. The list shows a part of the results.
Property label: Percent Effect (%)
Answer in %, number only, no unit symbol.

Example entries begin here.
1. Clc1cccc(C(NCc2ncc[nH]2)c2ccccn2)c1 (stereo not given): 3.902
2. O=C1CC(NCc2cnc(-c3cccs3)nc2)CN1c1ccccc1 (stereo not given): 9.928
3. O=C(COc1cccc(Br)c1)N1CCN(c2nccs2)CC1: 20.8
4. CO[C@H]1C(=O)N(C)C2(CCNCC2)[C@@H]1C(=O)Nc1ccccc1: 91.16
5. CC(C)N1CCC2(CC1)CC(CC(N)=O)c1ccc(F)cc12.O=C(O)C(F)(F)F (stereo not given): 14.5

COC(=O)CNc1ccc(-c2nc(Cc3ccc(OC)cc3)no2)cn1 has a reported Percent Effect of -28.16

CCN1CCC2(CC1)CC(NC(=O)N(C)C)c1cc(C)ccc12.O=C(O)C(F)(F)F (stereo not given) has a reported Percent Effect of -13.82

CCN1CCC2(CC1)CC(NC(=O)NC)c1cc(C)ccc12.O=C(O)C(F)(F)F (stereo not given) has a reported Percent Effect of -18.25

CC(C)Cc1cc(C(=O)NC(C)C)[nH]n1 has a reported Percent Effect of 116

CN1CCOC(c2cncc(CCC(=O)N(C)C)n2)C1 (stereo not given) has a reported Percent Effect of 119.8

Cc1ccc(F)cc1S(=O)(=O)N1C[C@@H](C)[C@@](C)(O)C1 has a reported Percent Effect of -12.21

====

Tested on: Wolbachia pipientis
Assay info: Anti-Wolbachia Cell-Based Screen
Assay type: functional
Parameters: scale not given: in the data most compounds retested in dose-response had high values
Particulars: 5 µM
Out of some 48,000 compounds screened, about 13,000 (27%) showed an effect of 50% or more. The list shows a part of the results.
Property label: Percent Effect (%)
Answer in %, number only, no unit symbol.

Example entries begin here.
1. CCOCC(=O)N(C)Cc1nc(C(F)(F)F)cs1: 102.1
2. Cc1ccccc1CNC(=O)Cc1c(C)nc2cc(=O)[nH]n2c1C: 1.807

COCc1noc(-c2ccc(N(C)Cc3c(C)n[nH]c3C)nc2)n1 has a reported Percent Effect of -8.806

Cn1cc(CN2CCc3ncnc(N4CCCC4)c3CC2)cn1 has a reported Percent Effect of 6.266

CCOCCC(=O)NCCNc1nccc(C(F)(F)F)n1 has a reported Percent Effect of -1.225

CC(=O)N1CCOC(CCc2cc(-c3c(C)noc3C)ncn2)C1 (stereo unspecified) has a reported Percent Effect of 154

Cc1ncsc1CN(C)C(=O)CC1CCOc2ccccc21 (stereo unspecified) has a reported Percent Effect of 5.103

Cc1cccc(CNC(=O)CCc2c(C)nc3cc(O)nn3c2C)n1 has a reported Percent Effect of 101.6

Cc1cc(S(C)(=O)=O)c(C)c(S(=O)(=O)NC2CCCC2)c1 has a reported Percent Effect of 3.251

Cc1noc(C)c1-c1cc(CCC2CN(C(=O)CN)CCO2)ncn1 (stereo unspecified) has a reported Percent Effect of 152

CN(C)c1nc2c(c(=O)[nH]1)CCN(C(=O)c1cccc3nccnc13)C2 has a reported Percent Effect of 3.463

N#CC1CCCN(c2ncnc3c2CCN(Cc2ccccc2)CC3)C1 (stereo unspecified) has a reported Percent Effect of 115

Cc1oc(-c2ccccc2)nc1C(=O)NC1=NCCS1 has a reported Percent Effect of -10.94

COCC1CN(C(=O)Nc2cc(Cl)cc(Cl)c2)CCO1 (stereo unspecified) has a reported Percent Effect of -11.38

CN1CCOC[C@H]1c1nc(-c2ccc(F)cc2F)c[nH]1 has a reported Percent Effect of 2.014

COCCC(=O)N(C)Cc1nc(C(F)(F)F)cs1 has a reported Percent Effect of 98.57

This collection of values is drawn from ChEMBL document CHEMBL3988442.
